- assay_target: G3BP1 NTF2L (nuclear transport factor 2-like domain of Ras-GTPase-activating protein binding protein (human, UniProt Q13283 1-139))
- Sequence (Q13283 1-139): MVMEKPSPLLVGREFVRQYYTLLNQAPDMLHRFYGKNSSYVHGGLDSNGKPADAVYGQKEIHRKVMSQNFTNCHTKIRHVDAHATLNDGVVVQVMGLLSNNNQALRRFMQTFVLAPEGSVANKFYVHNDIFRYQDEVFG
- method_notes: ITC
measured_endpoint: Kd (µM)
Reply with just the number (in µM).

Task: Tell us which Kd value is on record for VAQADPLVRRQRVQDLMAQMQGPYNFIQDSMLDFENQTLD [Caprin-1(347-386) peptide]
Result: 1.3
